- Assay remarks: reduced ATP signal of yeast carrying P. falciparum Hsp90 – S. cerevisiae, BacTiter-Glo luminescence, single point, set 2, antimalarial PfHsp90 inhibitor project, primary screen (AID 504621);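 further: yeast relying on Plasmodium falciparum Hsp90 in place of its own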
- Condition notes: S. cerevisiae expressing PfHsp90, growth, 48 h, at 9.4 µM
About 970 (0.31%) of roughly 310,000 compounds were called active.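 How the source made its calls: active means every replicate shows inhibition above about 80%, whatever the replicate mean (limit read from the data); inconclusive means mean inhibition reaches the set limit but some replicate falls short; inactive means the rest.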 This is one part of a sample in which actives are shown more often than they occur.
API: response.call in active, inactive

Past entries and their recorded results:
# Molecule, Assigned label
data = [
    ("CC12CCC3C(CCC4CC(=O)CCC43C)C1CC(=NO)C2=O (stereo unspecified)", "inactive"),
    ("O=C(c1ccccc1)C(O)(CN1CCCCC1)c1ccccc1 (stereo unspecified)", "inactive"),
]

Request: Please indicate how the test categorized CCC(=O)OC(Cc1ccccc1)(c1ccccc1)C(C)CN(C)C (stereo unspecified) .
Response: inactive
